test system: CCRF-CEM; assay: NCI tumour cell line growth inhibition, 48 h
The source made the active and inactive calls. Rule as the data show it: active = GI50 up to about 1.1 µM and inactive = higher.
Outcomes: active, inactive

{"COMPOUND": "Cc1nnc2n1N=C(c1cc(F)c(Cl)cc1Cl)/C(=C/c1ccc(-c3ccc([N+](=O)[O-])cc3)o1)S2", "CLASS_ASSIGNMENT": "inactive"}
{"COMPOUND": "COc1ccc2c3c1O[C@H]1C(=O)C=CC4(n5[nH]c(=O)n(-c6ccccc6)c5=O)C(C2)N(C)CCC314 (stereo not given in full)", "CLASS_ASSIGNMENT": "inactive"}
{"COMPOUND": "CCOc1cc(/C=N/c2ccc(Oc3ccc(Cl)cc3)c(Cl)c2)ccc1O", "CLASS_ASSIGNMENT": "inactive"}
{"COMPOUND": "c1ccc2c(c1)[nH]c1c2nc2ncccn21", "CLASS_ASSIGNMENT": "inactive"}
{"COMPOUND": "COc1ccc2c(c1)C1Oc3ccccc3CC1(O)CO2 (stereo not given)", "CLASS_ASSIGNMENT": "inactive"}
{"COMPOUND": "COC(=O)CCC(=O)Nc1ccc(Cl)cc1C", "CLASS_ASSIGNMENT": "active"}
{"COMPOUND": "COc1ccc(C(C)NNC(=O)c2cc[n+]([BH2-]C#N)cc2)cc1F (stereo not given)", "CLASS_ASSIGNMENT": "inactive"}
{"COMPOUND": "CCCCCCCC(=O)OC[C@H](C[As](=O)(O)O)OC(=O)CCCCCCC", "CLASS_ASSIGNMENT": "inactive"}
{"COMPOUND": "COc1cc(Br)c(/C=N\\c2cccc3cc(OC)c(OC)cc23)cc1OC", "CLASS_ASSIGNMENT": "inactive"}
{"COMPOUND": "O=C([O-])C(O)C(O)C(O)C(O)C(=O)O.[K+] (stereo not given)", "CLASS_ASSIGNMENT": "inactive"}
